# experimental-target: Voltage-gated inwardly rectifying potassium channel KCNH2 (Homo sapiens)
# test: qHTS Assay for Small Molecule Inhibitors of the Human hERG Channel Activity (AID 588834);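 also: lower thallium flux fluorescence means stronger hERG block; nearly all actives have a fitted effect of over 50% in size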
# assay-conditions: U2OS BacMam hERG, FluxOR thallium flux fluorescence; series mostly up to 46.1 µM
Inconclusive results are not listed. Calls of active or inactive are those of the source. Calls follow the shape of the dose curve; as a rule, active = well fitted inhibition curve with a large enough effect; inconclusive = small, poorly fitted or top-dose-only effect; inactive = flat fitted curve, though single readings scatter.
Outcomes: active, inactive

{"compound": "CCOC(=O)c1c[nH]c2cc(OCC(C)C)c(OCC(C)C)cc2c1=O", "experimental-target": "Voltage-gated inwardly rectifying potassium channel KCNH2 (Homo sapiens)", "assigned-category": "inactive"}
{"compound": "COC(=O)CC[C@H](N)C(=O)O", "experimental-target": "Voltage-gated inwardly rectifying potassium channel KCNH2 (Homo sapiens)", "assigned-category": "inactive"}
{"compound": "OCc1ccccc1", "experimental-target": "Voltage-gated inwardly rectifying potassium channel KCNH2 (Homo sapiens)", "assigned-category": "inactive"}
{"compound": "CN[C@@H]1[C@H](O[C@H]2[C@H](O[C@H]3[C@H](O)[C@@H](O)[C@H](N=C(N)N)[C@@H](O)[C@@H]3N=C(N)N)O[C@@H](C)[C@]2(O)C=O)O[C@@H](CO)[C@H](O)[C@H]1O", "experimental-target": "Voltage-gated inwardly rectifying potassium channel KCNH2 (Homo sapiens)", "assigned-category": "inactive"}
{"compound": "COc1cc(NCCCC(C)N)c2ncccc2c1 (configuration not stated)", "experimental-target": "Voltage-gated inwardly rectifying potassium channel KCNH2 (Homo sapiens)", "assigned-category": "inactive"}
{"compound": "C=CC1=C(C(=O)O)N2C(=O)[C@@H](NC(=O)/C(=N/OCC(=O)O)c3csc(N)n3)[C@H]2SC1 (stereo in doubt)", "experimental-target": "Voltage-gated inwardly rectifying potassium channel KCNH2 (Homo sapiens)", "assigned-category": "inactive"}
{"compound": "CC/C(=C(/CC)c1ccc(OP(=O)(O)O)cc1)c1ccc(OP(=O)(O)O)cc1", "experimental-target": "Voltage-gated inwardly rectifying potassium channel KCNH2 (Homo sapiens)", "assigned-category": "inactive"}
{"compound": "Cc1cc(O)c2c(c1)O[C@@]1(C)CC[C@H]3C(C)(C)CCCC34CO[C@@H]2[C@H]41 (some centres not stated)", "experimental-target": "Voltage-gated inwardly rectifying potassium channel KCNH2 (Homo sapiens)", "assigned-category": "inactive"}
{"compound": "CO[C@@]1(NC(=O)C2SC(=C(C(N)=O)C(=O)O)S2)C(=O)N2C(C(=O)O)=C(CSc3nnnn3C)CS[C@@H]21 (some centres not stated)", "experimental-target": "Voltage-gated inwardly rectifying potassium channel KCNH2 (Homo sapiens)", "assigned-category": "active"}
{"compound": "Cc1cc(-c2ccc(N=Nc3ccc4c(S(=O)(=O)O)cc(S(=O)(=O)O)c(N)c4c3O)c(C)c2)ccc1N=Nc1ccc2c(S(=O)(=O)O)cc(S(=O)(=O)O)c(N)c2c1O", "experimental-target": "Voltage-gated inwardly rectifying potassium channel KCNH2 (Homo sapiens)", "assigned-category": "inactive"}
{"compound": "O=C1/C(=C\\c2cccs2)CCC/C1=C\\c1cccs1", "experimental-target": "Voltage-gated inwardly rectifying potassium channel KCNH2 (Homo sapiens)", "assigned-category": "inactive"}
{"compound": "CCCC(CCC)C(=O)OC1C[C@H]2CC[C@@H](C1)[N+]2(C)C (some centres not stated)", "experimental-target": "Voltage-gated inwardly rectifying potassium channel KCNH2 (Homo sapiens)", "assigned-category": "inactive"}
{"compound": "CN1CCc2c(c3ccccc3n2Cc2ccccc2)C1", "experimental-target": "Voltage-gated inwardly rectifying potassium channel KCNH2 (Homo sapiens)", "assigned-category": "active"}
{"compound": "COC(=O)C(CN)c1c[nH]c2ccc(OC)cc12 (configuration not stated)", "experimental-target": "Voltage-gated inwardly rectifying potassium channel KCNH2 (Homo sapiens)", "assigned-category": "inactive"}
{"compound": "OC[C@@H](O)C(O)[C@H](O)CO", "experimental-target": "Voltage-gated inwardly rectifying potassium channel KCNH2 (Homo sapiens)", "assigned-category": "inactive"}
{"compound": "CC[C@@H](C)[C@H](N)C(=O)O", "experimental-target": "Voltage-gated inwardly rectifying potassium channel KCNH2 (Homo sapiens)", "assigned-category": "inactive"}
{"compound": "COC(=O)[C@@H](N)CS", "experimental-target": "Voltage-gated inwardly rectifying potassium channel KCNH2 (Homo sapiens)", "assigned-category": "inactive"}
